Where do these numbers come from? They come from PubChem BioAssay (NCI).

- Tested on: SF-295 CNS
- Assay Name: NCI-60 one-dose screen, 48 h
- Particulars: 10 µM unless noted
About 83,000 compounds went through this panel and 20% of them were active in at least one assay; those are over-represented in the sample as a whole. The source made the active and inactive calls. How the source made its calls: active means growth percent below 10; inactive means the rest.
Tick one outcome: yes = active, no = inactive

stdin: Hello, I am checking results. What call was entered for COc1cc(C2C(C#N)=C(N)OC3=C2C(=O)c2ccccc2C3=O)cc(OC)c1O (centres undefined) ?
stdout: no

stdin: Hello, I am checking results. What call was entered for O=C(Nc1ccc(Br)cc1F)c1cc(F)ccc1O ?
stdout: yes

stdin: Hello, I am checking results. What call was entered for CN(C)/C=C1\SC(=Nc2ccc(Cl)cc2)NC1=O ?
stdout: no

stdin: Hello, I am checking results. What call was entered for COc1ccc(C)c2sc(N(Cc3cccnc3)C(=O)c3ccc(C#N)cc3)nc12 ?
stdout: yes

stdin: Hello, I am checking results. What call was entered for COc1ccc(-c2cn[nH]c2-c2ccc(OC)c(O)c2)cc1 ?
stdout: no

stdin: Hello, I am checking results. What call was entered for c1ccc(CNc2nc(Nc3ccccc3)nc3ccccc23)cc1 ?
stdout: yes

stdin: Hello, I am checking results. What call was entered for NCCOc1ncccc1/C=C1\c2ccccc2-c2ccc(F)cc21 ?
stdout: yes

stdin: Hello, I am checking results. What call was entered for COc1ccc(/C=C2\NC(=O)NC2=O)cc1O ?
stdout: no

stdin: Hello, I am checking results. What call was entered for CCOC(=O)c1cc2c(n1Cc1ccccc1OC)-c1oncc1CCC2 ?
stdout: no

stdin: Hello, I am checking results. What call was entered for O=c1oc2ccc(I)cc2c(=O)n1-c1ccc(Cl)cc1F ?
stdout: yes

stdin: Hello, I am checking results. What call was entered for O=C(NC1C(O)OC(CO)C(O)C1O)NS(=O)(=O)c1ccc(Cl)cc1 (centres undefined) ?
stdout: no

stdin: Hello, I am checking results. What call was entered for Nc1cccc(Nc2cc(S(=O)(=O)O)c(N)c3c2C(=O)c2ccccc2C3=O)c1 ?
stdout: no

stdin: Hello, I am checking results. What call was entered for COc1ccc(/C=C2\N=C(c3ccccc3)N(c3ccc(-c4nc5ccc(C)cc5s4)cc3)C2=O)cc1 ?
stdout: no

stdin: Hello, I am checking results. What call was entered for CC(=O)c1ccc(Nc2nc(NCCO)nc(Nc3ccc(Cl)cc3)n2)cc1 ?
stdout: no

stdin: Hello, I am checking results. What call was entered for CC(C)C[C@H](C(=O)N[C@H](C(N)=O)C(C)C)N1CC=CCN(OCc2ccccc2)S1(=O)=O ?
stdout: no

stdin: Hello, I am checking results. What call was entered for COc1cccc2cc(N(C)c3nc(C)nc4ccsc34)ccc12 ?
stdout: yes

stdin: Hello, I am checking results. What call was entered for COC(=O)/C(=C\c1c(-c2ccccc2)[nH]c2ccccc12)S(C)(=O)=O ?
stdout: no

stdin: Hello, I am checking results. What call was entered for COc1ccc2sc(N(Cc3cccnc3)C(=O)c3ccc(C#N)cc3)nc2c1 ?
stdout: no

stdin: Hello, I am checking results. What call was entered for O=c1[nH]nnc2c1ncn2C1OC(CO)C(O)C1O (centres undefined) ?
stdout: no

stdin: Hello, I am checking results. What call was entered for COC(=O)[C@H](NC(=O)C1(C)CCC[C@]2(C)[C@H]3C[C@H]4C(C(C)C)=C[C@]3(CC[C@@H]12)[C@@H]1C(=O)CCC(=O)[C@@H]14)C(C)C (some centres undefined) ?
stdout: no

stdin: Hello, I am checking results. What call was entered for CN(C)c1ccc(/C=C/c2ccnc3c(O)cccc23)cc1 ?
stdout: yes

stdin: Hello, I am checking results. What call was entered for COc1ccc(/C=C/C(=O)c2ccc3cc(OC)c(OC)cc3c2)cc1OC ?
stdout: no

stdin: Hello, I am checking results. What call was entered for N[C@@H](CC/[N+]([O-])=N/O)C(=O)O ?
stdout: no

stdin: Hello, I am checking results. What call was entered for O=C(Nc1ccc(F)cc1F)c1cc(Cl)ccc1O ?
stdout: yes
